Recorded IC50 values (h5-HT4b (Homo sapiens, UniProt Q13639)) are given below.
readout-type: IC50 (nM)

[[record]]
compound = "CCCCN1CC[C@@H](CNC(=O)c2ccc(OC)c3c2OCCO3)[C@H](O)C1"
units_text = "nM"
measured = 2.63

[[record]]
compound = "COc1ccc(C(=O)NC[C@H]2CCN(CCCC#N)C[C@H]2O)c2c1OCCCO2"
units_text = "nM"
measured = 155

[[record]]
compound = "COc1c(Cl)cc(C(=O)NC[C@@H]2CCN(CCCC#N)C[C@H]2O)c2c1OCCO2"
units_text = "nM"
measured = 12.6

[[record]]
compound = "COCCCN1CC[C@@H](CNC(=O)c2ccc(OC)c3c2OCCO3)[C@H](O)C1"
units_text = "nM"
measured = 11.7

[[record]]
compound = "COCCCCN1CC[C@H](CNC(=O)c2ccc(OC)c3c2OCCCO3)[C@H](O)C1"
units_text = "nM"
measured = 162

[[record]]
compound = "CCCCN1CC[C@@H](CNC(=O)c2cc(Cl)c(OC)c3c2OCCO3)[C@H](OC)C1"
units_text = "nM"
measured = 8.91

[[record]]
compound = "CNCCCCN1CC[C@@H](CNC(=O)c2cc(Cl)c(Br)c3c2OCCCO3)[C@H](OC)C1"
units_text = "nM"
measured = 4.47

[[record]]
compound = "COCCCN1CC[C@@H](CNC(=O)c2ccc(OC)c3c2OCCCO3)[C@H](O)C1 [compound 98]"
units_text = "nM"
measured = 2.63


* * *

pIC50: −log10 of the molar value.
Recorded pIC50 values (h5-HT4b (Homo sapiens, UniProt Q13639)) are given below.
readout-type: pIC50

[[record]]
compound = "COc1c(Cl)cc(C(=O)NC[C@@H]2CCN(CCn3ccn(C(C)C)c3=O)C[C@H]2OC)c2c1OCCCO2"
readout_type = "pIC50"
measured = 6.64

[[record]]
compound = "COc1ccc(C(=O)NC[C@@H]2CCN(CCCO)C[C@H]2OC)c2c1OCCO2"
readout_type = "pIC50"
measured = 7.69

[[record]]
compound = "CC(C)n1ccn(CCN2CC[C@@H](CNC(=O)c3cc(Cl)c(Br)c4c3OCCCO4)[C@H](O)C2)c1=O"
readout_type = "pIC50"
measured = 7.87

[[record]]
compound = "CO[C@@H]1CNCC[C@H]1CNC(=O)c1cc(Cl)c(Cl)c2c1OCCCO2"
readout_type = "pIC50"
measured = 8.09

[[record]]
compound = "O=C(NC[C@@H]1CCN(CC2CCCO2)C[C@H]1O)c1cc(Cl)c(Br)c2c1OCCCO2 (some centres unmarked)"
readout_type = "pIC50"
measured = 8.41

[[record]]
compound = "COc1c(Cl)cc(C(=O)NC[C@@H]2CCN(CC3OCCO3)C[C@H]2OC)c2c1OCCCO2"
readout_type = "pIC50"
measured = 6.88

[[record]]
compound = "CNCCN1CC[C@@H](CNC(=O)c2cc(Cl)c(Cl)c3c2OCCCO3)[C@H](OC)C1"
readout_type = "pIC50"
measured = 8.28

[[record]]
compound = "COCCCCN1CC[C@@H](CNC(=O)c2ccc(OC)c3c2OCCCO3)[C@H](O)C1"
readout_type = "pIC50"
measured = 8.47


* * *

Where a name gives a salt, the structure may show the parent alone.
readout-type: melting point (°C)

[[record]]
molecule = "CNCCCCN1CC[C@@H](CNC(=O)c2ccc(C)c3c2OCCCO3)[C@H](O)C1 (as salt: salt)"
units_text = "°C"
measured = 120

[[record]]
molecule = "COc1ccc(C(=O)NC[C@@H]2CCNC[C@H]2O)c2c1OCCO2"
units_text = "°C"
measured = 160

[[record]]
molecule = "CCCCN1CC[C@@H](CNC(=O)c2ccc(C)c3c2OCCCO3)[C@H](O)C1"
units_text = "°C"
measured = 127

[[record]]
molecule = "CCCCN1CC[C@@H](CNC(=O)c2cc(Cl)c(OC)c3c2OCCO3)[C@H](O)C1"
units_text = "°C"
measured = 127


* * *

Recorded pIC50 values (h5-HT4b (Homo sapiens, UniProt Q13639)) are given below.
pIC50: −log10 of the molar value.
readout-type: pIC50

[[record]]
molecule = "CO[C@@H]1CN(CCCC#N)CC[C@H]1CNC(=O)c1cc(Cl)c(Br)c2c1OCCCO2"
measured = 8.20

[[record]]
molecule = "COc1c(Cl)cc(C(=O)NC[C@@H]2CCN(CCCC#N)C[C@H]2O)c2c1OCCCO2"
measured = 9.00

[[record]]
molecule = "COCCCN1CC[C@@H](CNC(=O)c2cc(Cl)c(Cl)c3c2OCCCO3)[C@H](O)C1"
measured = 8.41

[[record]]
molecule = "COc1c(Cl)cc(C(=O)NC[C@@H]2CCN(CCOCCO)C[C@H]2OC)c2c1OCCO2"
measured = 6.78

[[record]]
molecule = "COc1c(Cl)cc(C(=O)NC[C@@H]2CCN(CC3CCCO3)C[C@H]2O)c2c1OCCCO2 (some centres unmarked)"
measured = 8.92

[[record]]
molecule = "Cc1ccc(C(=O)NC[C@@H]2CCN(CCCC(N)=O)C[C@H]2O)c2c1OCCCO2"
measured = 8.93

[[record]]
molecule = "CNCCCCN1CC[C@@H](CNC(=O)c2ccc(C)c3c2OCCCO3)[C@H](O)C1"
measured = 8.16

[[record]]
molecule = "O=C(NC[C@@H]1CCN(CCCO)C[C@H]1O)c1cc(Cl)c(Br)c2c1OCCCO2"
measured = 8.75


* * *

test-system: h5-HT4b (Homo sapiens, UniProt Q13639)
Sequence (Q13639 whole entry): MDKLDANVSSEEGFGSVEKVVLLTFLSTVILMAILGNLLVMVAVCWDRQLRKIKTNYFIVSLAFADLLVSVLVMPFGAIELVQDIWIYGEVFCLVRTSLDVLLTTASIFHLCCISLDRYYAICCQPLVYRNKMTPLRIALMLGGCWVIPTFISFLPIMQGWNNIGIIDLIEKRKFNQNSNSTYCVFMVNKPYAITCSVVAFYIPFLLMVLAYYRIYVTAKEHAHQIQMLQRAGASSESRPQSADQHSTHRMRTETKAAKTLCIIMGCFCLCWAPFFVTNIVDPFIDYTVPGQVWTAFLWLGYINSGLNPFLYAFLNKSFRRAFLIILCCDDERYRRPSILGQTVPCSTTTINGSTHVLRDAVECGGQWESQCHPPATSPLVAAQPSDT
pIC50: −log10 of the molar value.
Would you mind labelling by pIC50? At or over 8 is y, under is n.

[[record]]
compound = "COc1ccc(C(=O)NC[C@@H]2CCN(CCCC#N)C[C@H]2OC)c2c1OCCCO2"
label_class = "n"

[[record]]
compound = "CNCCN1CC[C@@H](CNC(=O)c2cc(Cl)c(Br)c3c2OCCCO3)[C@H](OC)C1"
label_class = "n"

[[record]]
compound = "CNCCCCN1CC[C@@H](CNC(=O)c2cc(Cl)c(OC)c3c2OCCO3)[C@H](O)C1"
label_class = "n"

[[record]]
compound = "COCCCN1CC[C@@H](CNC(=O)c2ccc(OC)c3c2OCCCO3)[C@H](O)C1 [compound 110]"
label_class = "y"

[[record]]
compound = "CCCCN1CC[C@H](CNC(=O)c2ccc(OC)c3c2OCCCO3)[C@H](O)C1"
label_class = "n"


* * *

Recorded IC50 values (h5-HT4b (Homo sapiens)) are given below.
readout-type: IC50 (nM)

[[record]]
compound = "COc1ccc(C(=O)NC[C@@H]2CCN(CCCCNc3nccnc3C)C[C@H]2O)c2c1OCCCO2"
readout_type = "IC50"
measured = 3.89

[[record]]
compound = "COc1ccc(C(=O)NC[C@@H]2CCN(CCCO)C[C@H]2O)c2c1OCCO2"
readout_type = "IC50"
measured = 5.25

[[record]]
compound = "CCOc1ccc(C(=O)NC[C@@H]2CCN(CCCC(N)=O)C[C@H]2O)c2c1OCCCO2"
readout_type = "IC50"
measured = 5.89

[[record]]
compound = "COc1c(Cl)cc(C(=O)NC[C@@H]2CCN(CCOCCO)C[C@H]2OC)c2c1OCCCO2"
readout_type = "IC50"
measured = 93.3

[[record]]
compound = "CO[C@@H]1CN(CC2CCCO2)CC[C@H]1CNC(=O)c1cc(Cl)c(Br)c2c1OCCCO2 (some centres unmarked)"
readout_type = "IC50"
measured = 4.37

[[record]]
compound = "COCCCN1CC[C@@H](CNC(=O)c2ccc(F)c3c2OCCCO3)[C@H](O)C1"
readout_type = "IC50"
measured = 2.24

[[record]]
compound = "CCN1CC[C@@H](CNC(=O)c2ccc(C)c3c2OCCCO3)[C@H](O)C1"
readout_type = "IC50"
measured = 0.871

[[record]]
compound = "O=C(NC[C@@H]1CCNC[C@H]1O)c1cc(Cl)c(Br)c2c1OCCCO2"
readout_type = "IC50"
measured = 5.89

[[record]]
compound = "COc1ccc(C(=O)NCC2(O)CCN(CCCC#N)CC2)c2c1OCCCO2"
readout_type = "IC50"
measured = 11.2

[[record]]
compound = "COc1ccc(C(=O)NC[C@@H]2CCNC[C@H]2O)c2c1OCCCO2"
readout_type = "IC50"
measured = 56.2

[[record]]
compound = "COc1c(Cl)cc(C(=O)NC[C@@H]2CCNC[C@H]2O)c2c1OCCO2"
readout_type = "IC50"
measured = 77.6

[[record]]
compound = "COc1ccc(C(=O)NCC2(O)CCN(CCCC(N)=O)CC2)c2c1OCCCO2"
readout_type = "IC50"
measured = 501

[[record]]
compound = "CNCCN1CC[C@@H](CNC(=O)c2cc(Cl)c(OC)c3c2OCCO3)[C@H](O)C1"
readout_type = "IC50"
measured = 64.6

[[record]]
compound = "COc1ccc(C(=O)NC[C@@H]2CCN(CCCC(N)=O)C[C@H]2OC)c2c1OCCO2"
readout_type = "IC50"
measured = 33.9

[[record]]
compound = "CNCCCCN1CC[C@@H](CNC(=O)c2cc(Cl)c(Cl)c3c2OCCCO3)[C@H](OC)C1"
readout_type = "IC50"
measured = 0.912

[[record]]
compound = "COc1c(Cl)cc(C(=O)NC[C@@H]2CCN(CCCO)C[C@H]2O)c2c1OCCO2"
readout_type = "IC50"
measured = 5.5

[[record]]
compound = "O=C(NC[C@@H]1CCN(CCOCCO)C[C@H]1O)c1cc(Cl)c(Cl)c2c1OCCCO2"
readout_type = "IC50"
measured = 3.89


meta.source: patent US7635706B2
